System: BRAPP (broadleaf signalgrass)
Assay: Pre-plant incorporated (PPI) herbicidal activity, warm season
Assay type: in vivo, Brachiaria platyphylla
Details: PPI application, 10 g/ha
observation type: Percent inhibition BRAPP (%)
Give bare numbers, in %.

> print(dat)
                               smiles.entry          observation.type  assay.result
1  CCN(CC)C(=O)n1cnc(S(=O)(=O)C(F)(F)SCc2ccccc2)n1  Percent inhibition BRAPP             0
2  CCN(CC)C(=O)n1cnc(S(=O)(=O)C(F)(F)C(F)F)n1  Percent inhibition BRAPP            20
3  CCN(CC)C(=O)n1cnc(S(=O)(=O)C(F)(F)SCCOC)n1  Percent inhibition BRAPP            40
4  CCN(CC)C(=O)n1cnc(S(=O)(=O)C(F)(F)SCC(=O)OC)n1  Percent inhibition BRAPP             0

For the next question, use this molecule.
Problem: Quick check: Percent inhibition BRAPP of C=C(CC(F)(F)S(=O)(=O)c1ncn(C(=O)N(CC)CC)n1)C[Si](C)(C)C ?
Solution: 0

====

System: DIGSA (large crabgrass)
Assay: Pre-plant incorporated (PPI) herbicidal activity, warm season
Assay type: in vivo, Digitaria sanguinalis
Settings: Digitaria sanguinalis; PPI application, 10 g/ha; read-out: Percent inhibition DIGSA
observation type: inhibition at 10 g/ha (%)
Answers are plain numbers, in %.

> print(dat)
                               smiles.entry  measurement.units  assay.result
1  C=C(C)CC(F)(F)S(=O)(=O)c1ncn(C(=O)N(CC)CC)n1                  %            20
2  C=CCC(F)(F)S(=O)(=O)c1ncn(C(=O)N(CC)CC)n1                  %            60
3       CCN(CC)C(=O)n1cnc(S(=O)(=O)C(F)F)n1                  %            90

Next compound, inhibition at 10 g/ha to be filled in.
Problem: Item CCN(CC)C(=O)n1cnc(S(=O)(=O)C(F)(F)Br)n1 has what recorded inhibition at 10 g/ha?
Solution: 80

====

System: DIGSA (large crabgrass)
Assay: Pre-emergence herbicidal activity, warm season
Type: in vivo, Digitaria sanguinalis
Details: GR80 = lowest tested rate (300, 100, 30, 10 g/ha) with 80% or greater inhibition; approx. 14 days after treating; 30/21° C.
observation type: Pre-emergence activity (GR80) DIGSA (g/ha)
Numbers only, in g/ha.

Recorded Pre-emergence activity (GR80) DIGSA, per entry:
> print(dat)
                               smiles.entry             study.system  assay.result
1   CCSC(F)(F)S(=O)(=O)c1ncn(C(=O)N(C)OC)n1  DIGSA (large crabgrass)           300
2     CN(C)C(=O)n1cnc(S(=O)(=O)C(F)(F)Br)n1  DIGSA (large crabgrass)           300
3  CCN(CC)C(=O)n1cnc(S(=O)(=O)C(F)(F)SCc2ccccc2)n1  DIGSA (large crabgrass)           100
4  CCN(CC)C(=O)n1cnc(S(=O)(=O)C(F)(F)C(F)(F)SC)n1  DIGSA (large crabgrass)           100
5  CN(C(=O)n1cnc(S(=O)(=O)C(F)F)n1)C1CCCCC1  DIGSA (large crabgrass)           300

Kindly give each listed record's Pre-emergence activity (GR80) DIGSA.
1. CCOC(=O)C(F)(F)S(=O)(=O)c1ncn(C(=O)N(CC)CC)n1
2. CCN(CC)C(=O)n1cnc(S(=O)(=O)C(F)(F)C(F)(F)Br)n1
3. CCN(CC)C(=O)n1cnc(S(=O)(=O)C(F)(F)F)n1
4. CCN(CC)C(=O)n1cnc(S(=O)(=O)C(F)(F)Cl)n1

Solution:
1: 300; 2: 100; 3: 300; 4: 100

====

Kindly state inhibition at 900 g/ha for each of the entries shown.
System: SASKR (russian thistle)
Assay: Pre-plant incorporated (PPI) herbicidal activity, cool season
Format: in vivo, Salsola kali
Settings: Salsola kali; weed, PPI application, 900 g/ha; read-out: Percent inhibition SASKR
Experimental: In another set of tests, the pre-plant incorporated (PPI) activity of compounds of this invention was evaluated on the same species as for the pre-emergence tests described above. […] A pre-prepared topsoil mixture (described above) was placed in a pot and compacted to a depth of 1.0 to 1.25 cm from the top of the pot. […] A sufficient quantity of soil to cover the seeds and level fill the pot was weighed into an open container. […]
Numbers only, in %.

Worked set:
> print(dat)
                               smiles.entry        observation.type  measurement.units  assay.result
1  C=CCC(F)(F)S(=O)(=O)c1ncn(C(=O)N(CC)CC)n1  inhibition at 900 g/ha                  %           100
2  CCSC(F)(F)S(=O)(=O)c1ncn(C(=O)N(CC)CC)n1  inhibition at 900 g/ha                  %           100
3  C=C(Br)CC(F)(F)S(=O)(=O)c1ncn(C(=O)N(CC)CC)n1  inhibition at 900 g/ha                  %            95
4   CCN(CC)C(=O)n1cnc(S(=O)(=O)C(F)(F)Br)n1  inhibition at 900 g/ha                  %           100

Now for the compound whose inhibition at 900 g/ha we want.
Problem: Lookup: inhibition at 900 g/ha / SASKR (russian thistle) / C=C(C)CC(F)(F)S(=O)(=O)c1ncn(C(=O)N(CC)CC)n1
Solution: 100

====

Tested on: SASKR (russian thistle)
Assay: Pre-emergence herbicidal activity, cool season
Assay type: in vivo, Salsola kali
Settings: lowest tested rate with 80% or greater inhibition; rates 300, 100, 30, 10 g/ha; about 14 days
Exercise: for every item that follows, state its recorded Pre-emergence activity GR80, SASKR.
Give bare numbers, in g/ha.

Take a look at these entries with their results.
> print(dat)
                                   compound  assay.result
1  CON(C)C(=O)n1cnc(S(=O)(=O)C(F)F)n1 [Example 34]           300
2  C#CCN(C)C(=O)n1cnc(S(=O)(=O)C(F)(F)Cl)n1 [Example 90]            30
3  CCCN(CC)C(=O)n1cnc(S(=O)(=O)C(F)(F)C(F)F)n1 [Example 63]            30
4  CN(C(=O)n1cnc(S(=O)(=O)C(F)(F)Cl)n1)c1ccccc1 [Example 86]           300
5  CN(C)C(=O)n1cnc(S(=O)(=O)C(F)(F)Cl)n1 [Example 85]           100

Each compound below has a reported value. Please supply its Pre-emergence activity GR80, SASKR.
1. C#CCN(C)C(=O)n1cnc(S(=O)(=O)C(F)(F)C(F)F)n1 [Example 66]
2. CCSC(F)(F)S(=O)(=O)c1ncn(C(=O)N(C)CCOC)n1 [Example 52]
3. CN(C)C(=O)n1cnc(S(=O)(=O)C(F)(F)C(F)F)n1 [Example 61]
4. CN(C)C(=O)n1cnc(S(=O)(=O)C(F)F)n1 [Example 26]
5. CCN(CC)C(=O)n1cnc(S(=O)(=O)C(F)(F)Br)n1 [Example 1]
6. COCCN(C)C(=O)n1cnc(S(=O)(=O)C(F)(F)C(F)(F)Br)n1 [Example 76]
7. CN(C(=O)n1cnc(S(=O)(=O)C(F)F)n1)c1ccccc1 [Example 27]
8. CN(Cc1ccccc1)C(=O)n1cnc(S(=O)(=O)C(F)F)n1 [Example 33]

Solution:
300
100
100
300
300
30
300
300

====

Test system: barley (HORVX)
Experiment: Selectivity test, PPI, cool season crop
Format: in vivo, Hordeunm vulgare
Settings: PPI application, 900 g/ha
observation type: Percent inhibition HORVX

> print(dat)
                               smiles.entry  assay.result
1   CCN(CC)C(=O)n1cnc(S(=O)(=O)C(F)(F)SC)n1           40%
2  CCN(CC)C(=O)n1cnc(S(=O)(=O)C(F)(F)SCc2ccccc2)n1           20%
3  CCN(CC)C(=O)n1cnc(S(=O)(=O)C(F)(F)C(F)F)n1           20%

# per-item lookup of Percent inhibition HORVX; items listed below
1. C=C(CC(F)(F)S(=O)(=O)c1ncn(C(=O)N(CC)CC)n1)C[Si](C)(C)C
2. CCN(CC)C(=O)n1cnc(S(=O)(=O)C(F)(F)C(F)(F)Br)n1

Solution:
1: 30%; 2: 90%

Lab note: each molecule below needs its Percent inhibition HORVX filled in.
1. CCN(CC)C(=O)n1cnc(S(=O)(=O)C(F)(F)F)n1
2. CCN(CC)C(=O)n1cnc(S(=O)(=O)C(F)(F)SCCOC)n1
3. CCN(CC)C(=O)n1cnc(S(=O)(=O)C(F)(F)Cl)n1
4. CCN(CC)C(=O)n1cnc(S(=O)(=O)C(F)(F)SCC(=O)OC)n1

Solution:
1: 100%; 2: 40%; 3: 80%; 4: 10%
